Source of measurements: PubChem BioAssay AID2060508

System: 454973-116-R2-J3-PDC spheroids, viability, % test/control
Experiment: Anticancer human tumor 454973-116-R2-J3-PDC patient-derived pancreatic carcinoma cell line growth inhibition [GQUAD]
Measurement Setup: second compound 1 µM; first compound 1 µM; active compounds read low; spheroids with HUVEC and MSC
From the text: DNA G-quadruplex Stabilizer Agents in Combinations in Complex Spheroids A high-throughput screen of multi-cell type tumor spheroids was designed to identify active combinations of DNA G-quadruplex stabilizer agents and targeted small molecules. […] Compounds. […] If the clinical Cmax for an agent had not been determined, the highest concentration tested was 10 microM. […]
Provide the reported viability, T/C of each item.

The following compounds have reported results that may help.
COc1ncnc(C2CC2)c1-c1ncc2cnn(Cc3ccc(-c4nc(C(F)(F)F)cn4C(C)C)cc3)c2n1 + Cc1[nH]c2ccc(F)cc2c1-c1nc2c3cccnc3c3ncccc3c2[nH]1 :: 106%
CC(C)(O)C1CCC(Nc2ccc3ncc(-c4cccc(C(F)(F)F)c4)n3n2)CC1 (stereo not given) + Cc1cnc(CNC(=O)c2c(=O)c3ccc(N4CCCN(C)CC4)nc3n3c2sc2ccccc23)cn1 :: 66.5%
COc1ccc([C@@H](O)c2cc(-c3ncnc4cc(N5CCOCC5)ccc34)c(F)cc2Cl)nn1 + CN(C)c1ccc(Nc2c3ccc(NC(=O)CCN4CCCC4)cc3nc3cc(NC(=O)CCN4CCCC4)ccc23)cc1 :: 76.6%

Your task in this section: give viability, T/C for each listed record.
1. O=c1[nH]cc(F)c(=O)[nH]1 + CN(C)c1ccc(Nc2c3ccc(NC(=O)CCN4CCCC4)cc3nc3cc(NC(=O)CCN4CCCC4)ccc23)cc1
2. C=CC(=O)N1CCN(c2nc(=O)n(-c3c(C)ccnc3C(C)C)c3nc(-c4c(O)cccc4F)c(F)cc23)C(C)C1 (stereo not given) + Cc1[nH]c2ccc(F)cc2c1-c1nc2c3cccnc3c3ncccc3c2[nH]1

Outgoing:
56.9%
103%

====

System: 454973-116-R2-J3-PDC spheroids, viability, % test/control
Experiment: Anticancer human tumor 454973-116-R2-J3-PDC cell line growth inhibition [GQUAD];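 further: spheroids exposed to compounds for seven days; 100% = DMSO vehicle control viability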
Measurement Setup: second compound 0.1 µM; first compound 0.1 µM; active compounds read low; spheroids with HUVEC and MSC
Measured Parameter: viability, T/C (%)
Give bare numbers, in %.

The examples below pair each entry with its known result.
Cc1cccc(N(C)C(=O)C2C(O)CCN2c2nc(C)cc(C(F)(F)F)c2C#N)c1 (stereo unspecified) + Cc1cnc(CNC(=O)c2c(=O)c3ccc(N4CCCN(C)CC4)nc3n3c2sc2ccccc23)cn1 :: 74.3
CC(C)n1c(=O)n(C)c2cnc3cc(F)c(-c4ccc(OCCCN5CCCCC5)nc4)cc3c21 + Cc1cnc(CNC(=O)c2c(=O)c3ccc(N4CCCN(C)CC4)nc3n3c2sc2ccccc23)cn1 :: 35.6
O=c1[nH]cc(F)c(=O)[nH]1 + CN(C)c1ccc(Nc2c3ccc(NC(=O)CCN4CCCC4)cc3nc3cc(NC(=O)CCN4CCCC4)ccc23)cc1 :: 95.6
CC1COCCN1c1cc(C2(S(C)(=N)=O)CC2)nc(-c2ccnc3[nH]ccc23)n1 (stereo unspecified) + Cc1[nH]c2ccc(F)cc2c1-c1nc2c3cccnc3c3ncccc3c2[nH]1 :: 96.9

For every record below, what is its viability, T/C?
1. O=C(c1cc(Cc2n[nH]c(=O)c3ccccc23)ccc1F)N1CCN(C(=O)C2CC2)CC1 + CN(C)c1ccc(Nc2c3ccc(NC(=O)CCN4CCCC4)cc3nc3cc(NC(=O)CCN4CCCC4)ccc23)cc1
2. CC1COCCN1c1cc(C2(S(C)(=N)=O)CC2)nc(-c2ccnc3[nH]ccc23)n1 (stereo unspecified) + Cc1cnc(CNC(=O)c2c(=O)c3ccc(N4CCCN(C)CC4)nc3n3c2sc2ccccc23)cn1
3. CC1COCCN1c1cc(-c2ccnn2C)c2ccnc(-c3ccn[nH]3)c2n1 (stereo unspecified) + CN(C)c1ccc(Nc2c3ccc(NC(=O)CCN4CCCC4)cc3nc3cc(NC(=O)CCN4CCCC4)ccc23)cc1

Outgoing:
1. 96.7
2. 81.9
3. 72

Can you give me viability, T/C for all of these, one by one?
1. COc1ncnc(C2CC2)c1-c1ncc2cnn(Cc3ccc(-c4nc(C(F)(F)F)cn4C(C)C)cc3)c2n1 + CN(C)c1ccc(Nc2c3ccc(NC(=O)CCN4CCCC4)cc3nc3cc(NC(=O)CCN4CCCC4)ccc23)cc1
2. C=CC(=O)N1CCN(c2nc(=O)n(-c3c(C)ccnc3C(C)C)c3nc(-c4c(O)cccc4F)c(F)cc23)C(C)C1 (stereo unspecified) + CN(C)c1ccc(Nc2c3ccc(NC(=O)CCN4CCCC4)cc3nc3cc(NC(=O)CCN4CCCC4)ccc23)cc1
3. COc1ccc([C@@H](O)c2cc(-c3ncnc4cc(N5CCOCC5)ccc34)c(F)cc2Cl)nn1 + Cc1cnc(CNC(=O)c2c(=O)c3ccc(N4CCCN(C)CC4)nc3n3c2sc2ccccc23)cn1

Outgoing:
1: 114; 2: 98.9; 3: 71.3

Incoming: Request the reported viability, T/C associated with CC(C)(O)C1CCC(Nc2ccc3ncc(-c4cccc(C(F)(F)F)c4)n3n2)CC1 (stereo unspecified) + Cc1[nH]c2ccc(F)cc2c1-c1nc2c3cccnc3c3ncccc3c2[nH]1
Outgoing: 100
